Measured values drawn from patent US20250206792 for this set.

# ASSAYED_SYSTEM: T1, Bovine Beta-casein (SEQ ID NO: 3)
# T1 chain: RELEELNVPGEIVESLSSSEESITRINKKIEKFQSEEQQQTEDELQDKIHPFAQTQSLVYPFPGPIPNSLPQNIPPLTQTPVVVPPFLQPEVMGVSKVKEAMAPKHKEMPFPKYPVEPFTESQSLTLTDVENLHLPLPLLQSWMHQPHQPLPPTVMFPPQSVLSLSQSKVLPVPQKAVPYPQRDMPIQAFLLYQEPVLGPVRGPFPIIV
READOUT_TYPE: phosphorylation at *S30 (native site), MS grade, in vitro kinase reaction

PrkD (Bacillus subtilis 168 | BSU_02030) (SEQ ID NO: 7) (protein) MALKLLKKLLFDRPLKNGVILNHQYKIEECLGMGGYGLVYLCTDILAQTPYVLKQLRPTKAKKEKEKVRFQQEIKLLKNIHHPQIPGFIDEFIIDGQAYYVMQFIEGENIEELLFFRKQPFTELMALQLISQLLEIIEYLHDRLIFHSDIRTPNIIINDGRLCLIDFGLAKQLTPEEMEEIKVRKQDDFFDLGETLLFLLYSQYKGKKKKNGTWLEELTLTKEVTLLLKRLLGIEEEYQHTASIREDLNRAIQSVT ... +
PrkC (Bacillus subtilis) (SEQ ID NO: 8) (protein) MSGPVPSRARVYTDVNTHRPREYWDYESHVVEWGNQDDYQLVRKLGRGKYSEVFEAINITNNEKVVVKILKPVKKKKIKREIKILENLRGGPNIITLADIVKDPVSRTPALVFEHVNNTDFKQLYQTLTDYDIRFYMYEILKALDYCHSMGIMHRDVKPHNVMIDHEHRKLRLIDWGLAEFYHPGQEYNVRVASRYFKGPELLVDYQMYDYSLDMWSLGCMLASMIFRKEPFFHGHDNYDQLVRIAKVLGTEDLYDYIDKYNIELDPRFNDILGRHSRKRWERFVHSENQHLVSPEALDFLDKLLRYDHQSRLTAREAMEHPYFYTVVKDQARMGSSSMPGGSTPVSSANMMSGISSVPTPSPLGPLAGSPVIAAANPLGMPVPAAAGAQ ... +
PKNB1_Cgl2751 (Corynebacterium glutamicum) (SEQ ID NO: 9) (protein) MYEVLGVIAHGGMGWIYLANDRNVSGRIVVLKGMMAQSSVQDQGTAEAEREFLADITHPGIVKAYNFIDDPRVPGGFIVMEYVNGPSLKDRCKAQPDGVLRVDLAIGYILELLPAMDYLHQRGVVYNDLKPENVIATEDQVKLIDLGAVTGIGAFGYIYGTKGFQAPEVATHGPSISSDIFTIGRTLAALTMPLPVEDGVLAPGIPSPKNSPLLRRHLSFYRLLQRATADDPQHRFRNVSELRTQLYGVLREILAVRDGKQYPPQHSLFSPQRSTFGTKHLVF ... +
YabT (GenBank: SPU13583.1) (SEQ ID NO: 5) (protein) MLNWTPKLQSLSTPFAKLSTAAITPTGPAIREATLQFEKYAQEGACWQMMNDALTSLACSLKPGTTIKGKWNGNTYTLRKQLGKGANGIVYLAETSDGHVALKVSDDSLSITSEVNVLKSFSKAQSVTMGPSFFDTDDAYIPSANTKVSFYAMEYIKGPLLLKYVSDKGAEWIPVLMIQLLSSLSVLHQQGWIFGDLKPDNLIVTGPPARIRCIDVGGTTKEGRAIKEYTEFYDRGYWGYGTRKAEPSYDLFAVAMIMINSVHKKEFKKTNQPKEQLRSLIEGNPLLQKYKKALFSALNGDYQSADEMKKDMLDAGQKAAQRKQPIKASPQPATRQRQQKPRQGKITKTRYTPKQKPAKSGGLFETTLIVISVLALYFAYIIFFLI ... ++
